Biological target: KRAS G12V (Homo sapiens, UniProt P01116+P62937, G12V)
Sequence (P01116 1-169 isoform P01116-2 G12V limits assumed): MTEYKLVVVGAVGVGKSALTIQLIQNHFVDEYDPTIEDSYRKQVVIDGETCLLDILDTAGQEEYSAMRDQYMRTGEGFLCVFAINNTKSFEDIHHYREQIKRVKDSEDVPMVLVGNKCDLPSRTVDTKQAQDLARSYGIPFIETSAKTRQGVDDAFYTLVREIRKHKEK
Sequence (P62937 whole entry): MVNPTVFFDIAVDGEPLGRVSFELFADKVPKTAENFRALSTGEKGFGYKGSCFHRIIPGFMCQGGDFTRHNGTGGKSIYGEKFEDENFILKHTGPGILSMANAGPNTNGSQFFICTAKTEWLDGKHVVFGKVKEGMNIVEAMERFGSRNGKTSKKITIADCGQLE
Assay: Disruption of BRAF RBD interaction with Ras (FRET / MOA assay, with Cyclophilin A)
Assay type: biochemical
Conditions: KRAS G12V; read-out: KRAS G12V FRET data IC50
I'd be grateful if you could share measured IC50 for these entries.

Recorded IC50 for `CCn1c(-c2cccnc2[C@H](C)OC)c2c3cc(ccc31)-c1csc(n1)C[C@H](NC(=O)[C@H](C(C)C)N(C)C(=O)O[C@H]1CCOC1)C(=O)N1CCC[C@H](N1)C(=O)OCC(C)(C)C2` with KRAS G12V (Homo sapiens, UniProt P01116+P62937, G12V), please? 1000 to 10000 nM

Recorded IC50 for `CCn1c(-c2cnccc2COC)c2c3cc(ccc31)-c1cc(O)cc(c1)C[C@H](NC(=O)[C@H](C(C)C)N(C)C(=O)CN1CCOCC1)C(=O)N1CCC[C@H](N1)C(=O)OCC(C)(C)C2` with KRAS G12V (Homo sapiens, UniProt P01116+P62937, G12V), please? 1000 to 10000 nM

Recorded IC50 for `C=C[C@@H]1C[C@]1(N)C(=O)N(C)[C@H](C(=O)N[C@H]1Cc2cc(O)cc(c2)-c2ccc3c(c2)c(c(-c2cccnc2[C@H](C)OC)n3CC)CC(C)(C)COC(=O)[C@@H]2CCCN(N2)C1=O)C(C)C` with KRAS G12V (Homo sapiens, UniProt P01116+P62937, G12V), please? 100 to 1000 nM

Recorded IC50 for CCn1c(-c2cccnc2[C@H](C)OC)c2c3cc(ccc31)-c1csc(n1)C[C@H](NC(=O)[C@H](C(C)C)N(C)C(=O)N1CC3(CC3)C1)C(=O)N1CCC[C@H](N1)C(=O)OCC(C)(C)C2 (atropisomer, axis not shown) with KRAS G12V (Homo sapiens, UniProt P01116+P62937, G12V), please? 100 to 1000 nM

Recorded IC50 for `CCn1c(-c2cccnc2[C@H](C)OC)c2c3cc(ccc31)-c1csc(n1)C[C@H](NC(=O)[C@H](C(C)C)N(C)C(=O)N1CCC13CN(C)C3)C(=O)N1CCC[C@H](N1)C(=O)OCC(C)(C)C2` with KRAS G12V (Homo sapiens, UniProt P01116+P62937, G12V), please? 100 to 1000 nM

Recorded IC50 for `CCn1c(-c2cccnc2[C@H](C)OC)c2c3cc(ccc31)-c1csc(n1)C[C@H](NC(=O)[C@H](C(C)C)N(C)C(=O)N1CC(C#N)(N(C)C)C1)C(=O)N1CCC[C@H](N1)C(=O)OCC(C)(C)C2` with KRAS G12V (Homo sapiens, UniProt P01116+P62937, G12V), please? 100 to 1000 nM

Recorded IC50 for `C=CS(=O)(=O)N1CC[C@H](C(=O)N(C)[C@H](C(=O)N[C@H]2Cc3cccc(c3)-c3ccc4c(c3)c(c(-c3cncnc3)n4CC)CC(C)(C)COC(=O)[C@@H]3CCCN(N3)C2=O)C(C)C)C1` with KRAS G12V (Homo sapiens, UniProt P01116+P62937, G12V), please? > 10000 nM

Recorded IC50 for `C=CC(=O)N1CC[C@H](C(=O)N(C)[C@H](C(=O)N[C@H]2Cc3cc(O)cc(c3)-c3ccc4c(c3)c(c(-c3cncc(CN(C)C)c3)n4CC)CC(C)(C)COC(=O)[C@@H]3CCCN(N3)C2=O)C(C)C)C1` with KRAS G12V (Homo sapiens, UniProt P01116+P62937, G12V), please? 1000 to 10000 nM

Recorded IC50 for `CCn1c(-c2cccnc2[C@H](C)OC)c2c3cc(ccc31)-c1csc(n1)C[C@H](NC(=O)[C@H]1CCO1)C(=O)N1CCC[C@H](N1)C(=O)OCC(C)(C)C2` with KRAS G12V (Homo sapiens, UniProt P01116+P62937, G12V), please? 100 to 1000 nM

Recorded IC50 for `C=CC(=O)N1CC[C@H](C(=O)N(C)[C@H](C(=O)N[C@H]2Cc3cc(cc(O)c3F)-c3ccc4c(c3)c(c(-c3ccccc3CCOC)n4CC)CC(C)(C)COC(=O)[C@@H]3CCCN(N3)C2=O)C(C)C)C1` with KRAS G12V (Homo sapiens, UniProt P01116+P62937, G12V), please? > 10000 nM

Recorded IC50 for `CCn1c(-c2cccnc2[C@H](C)OC)c2c3cc(ccc31)-c1cccc(c1)C[C@H](NC(=O)[C@H](C(C)C)N(C)C(=O)[C@H]1CCN(C(=O)CN)C1)C(=O)N1CCC[C@H](N1)C(=O)OCC(C)(C)C2` with KRAS G12V (Homo sapiens, UniProt P01116+P62937, G12V), please? 1000 to 10000 nM

Recorded IC50 for `C=CC(=O)N1CC[C@H](C(=O)N(C)[C@H](C(=O)N[C@H]2Cc3cc(O)cc(c3)-c3cc(F)c4c(c3)c(c(-c3ccccc3CCOC)n4CC)CC(C)(C)COC(=O)[C@@H]3CCCN(N3)C2=O)C(C)C)C1` with KRAS G12V (Homo sapiens, UniProt P01116+P62937, G12V), please? > 10000 nM

Recorded IC50 for CCn1c(-c2cc(C3CCN(C)CC3)cnc2[C@H](C)OC)c2c3cc(ccc31)-c1csc(n1)C[C@H](NC(=O)[C@H](C(C)C)N(C)C(=O)N1CCOCC1)C(=O)N1CCC[C@H](N1)C(=O)OCC(C)(C)C2 (atropisomer, axis not shown) with KRAS G12V (Homo sapiens, UniProt P01116+P62937, G12V), please? 100 to 1000 nM

Recorded IC50 for `CCn1c(-c2cccnc2[C@H](C)OC)c2c3cc(ccc31)-c1csc(n1)C[C@H](NC(=O)[C@H](C(C)C)N(C)C(=O)N1CC(C)(OC)C1)C(=O)N1CCC[C@H](N1)C(=O)OCC(C)(C)C2` with KRAS G12V (Homo sapiens, UniProt P01116+P62937, G12V), please? 1000 to 10000 nM

Recorded IC50 for CCn1c(-c2cccnc2COC)c2c3cc(ccc31)-c1cc(O)cc(c1)C[C@H](NC(=O)[C@@H](C(C)C)N(C)C(=O)[C@H]1CCN(C(=O)C#CC(C)N3CCOCC3)C1)C(=O)N1CCC[C@H](N1)C(=O)OCC(C)(C)C2 (some centres unmarked) with KRAS G12V (Homo sapiens, UniProt P01116+P62937, G12V), please? > 10000 nM

Recorded IC50 for `CCn1c(-c2cnccc2COC)c2c3cc(ccc31)-c1cc(O)cc(c1)C[C@H](NC(=O)[C@H](C(C)C)N(C)C(=O)N1CC(OC)C1)C(=O)N1CCC[C@H](N1)C(=O)OCC(C)(C)C2` with KRAS G12V (Homo sapiens, UniProt P01116+P62937, G12V), please? 100 to 1000 nM

Recorded IC50 for C=CC(=O)N1CC[C@@]2(CCN2C(=O)N(C)[C@H](C(=O)N[C@H]2Cc3nc(cs3)-c3ccc4c(c3)c(c(-c3cccnc3[C@H](C)OC)n4CC)CC(C)(C)COC(=O)C3CCCN(N3)C2=O)N(C)C)C1 (single isomer, unassigned) with KRAS G12V (Homo sapiens, UniProt P01116+P62937, G12V), please? 1000 to 10000 nM
